Target: recombinant human ACC2 (rhACC2) (Homo sapiens, UniProt O00763, V2141I)
Construct: a full length Cytomax clone of ACC2 was purchased from Cambridge Bioscience Limited; made in house; host or cells: CHO cells (tetracycline-induced, pcDNA5 FRT TO-TOPO)
Sequence (O00763 whole entry V2141I): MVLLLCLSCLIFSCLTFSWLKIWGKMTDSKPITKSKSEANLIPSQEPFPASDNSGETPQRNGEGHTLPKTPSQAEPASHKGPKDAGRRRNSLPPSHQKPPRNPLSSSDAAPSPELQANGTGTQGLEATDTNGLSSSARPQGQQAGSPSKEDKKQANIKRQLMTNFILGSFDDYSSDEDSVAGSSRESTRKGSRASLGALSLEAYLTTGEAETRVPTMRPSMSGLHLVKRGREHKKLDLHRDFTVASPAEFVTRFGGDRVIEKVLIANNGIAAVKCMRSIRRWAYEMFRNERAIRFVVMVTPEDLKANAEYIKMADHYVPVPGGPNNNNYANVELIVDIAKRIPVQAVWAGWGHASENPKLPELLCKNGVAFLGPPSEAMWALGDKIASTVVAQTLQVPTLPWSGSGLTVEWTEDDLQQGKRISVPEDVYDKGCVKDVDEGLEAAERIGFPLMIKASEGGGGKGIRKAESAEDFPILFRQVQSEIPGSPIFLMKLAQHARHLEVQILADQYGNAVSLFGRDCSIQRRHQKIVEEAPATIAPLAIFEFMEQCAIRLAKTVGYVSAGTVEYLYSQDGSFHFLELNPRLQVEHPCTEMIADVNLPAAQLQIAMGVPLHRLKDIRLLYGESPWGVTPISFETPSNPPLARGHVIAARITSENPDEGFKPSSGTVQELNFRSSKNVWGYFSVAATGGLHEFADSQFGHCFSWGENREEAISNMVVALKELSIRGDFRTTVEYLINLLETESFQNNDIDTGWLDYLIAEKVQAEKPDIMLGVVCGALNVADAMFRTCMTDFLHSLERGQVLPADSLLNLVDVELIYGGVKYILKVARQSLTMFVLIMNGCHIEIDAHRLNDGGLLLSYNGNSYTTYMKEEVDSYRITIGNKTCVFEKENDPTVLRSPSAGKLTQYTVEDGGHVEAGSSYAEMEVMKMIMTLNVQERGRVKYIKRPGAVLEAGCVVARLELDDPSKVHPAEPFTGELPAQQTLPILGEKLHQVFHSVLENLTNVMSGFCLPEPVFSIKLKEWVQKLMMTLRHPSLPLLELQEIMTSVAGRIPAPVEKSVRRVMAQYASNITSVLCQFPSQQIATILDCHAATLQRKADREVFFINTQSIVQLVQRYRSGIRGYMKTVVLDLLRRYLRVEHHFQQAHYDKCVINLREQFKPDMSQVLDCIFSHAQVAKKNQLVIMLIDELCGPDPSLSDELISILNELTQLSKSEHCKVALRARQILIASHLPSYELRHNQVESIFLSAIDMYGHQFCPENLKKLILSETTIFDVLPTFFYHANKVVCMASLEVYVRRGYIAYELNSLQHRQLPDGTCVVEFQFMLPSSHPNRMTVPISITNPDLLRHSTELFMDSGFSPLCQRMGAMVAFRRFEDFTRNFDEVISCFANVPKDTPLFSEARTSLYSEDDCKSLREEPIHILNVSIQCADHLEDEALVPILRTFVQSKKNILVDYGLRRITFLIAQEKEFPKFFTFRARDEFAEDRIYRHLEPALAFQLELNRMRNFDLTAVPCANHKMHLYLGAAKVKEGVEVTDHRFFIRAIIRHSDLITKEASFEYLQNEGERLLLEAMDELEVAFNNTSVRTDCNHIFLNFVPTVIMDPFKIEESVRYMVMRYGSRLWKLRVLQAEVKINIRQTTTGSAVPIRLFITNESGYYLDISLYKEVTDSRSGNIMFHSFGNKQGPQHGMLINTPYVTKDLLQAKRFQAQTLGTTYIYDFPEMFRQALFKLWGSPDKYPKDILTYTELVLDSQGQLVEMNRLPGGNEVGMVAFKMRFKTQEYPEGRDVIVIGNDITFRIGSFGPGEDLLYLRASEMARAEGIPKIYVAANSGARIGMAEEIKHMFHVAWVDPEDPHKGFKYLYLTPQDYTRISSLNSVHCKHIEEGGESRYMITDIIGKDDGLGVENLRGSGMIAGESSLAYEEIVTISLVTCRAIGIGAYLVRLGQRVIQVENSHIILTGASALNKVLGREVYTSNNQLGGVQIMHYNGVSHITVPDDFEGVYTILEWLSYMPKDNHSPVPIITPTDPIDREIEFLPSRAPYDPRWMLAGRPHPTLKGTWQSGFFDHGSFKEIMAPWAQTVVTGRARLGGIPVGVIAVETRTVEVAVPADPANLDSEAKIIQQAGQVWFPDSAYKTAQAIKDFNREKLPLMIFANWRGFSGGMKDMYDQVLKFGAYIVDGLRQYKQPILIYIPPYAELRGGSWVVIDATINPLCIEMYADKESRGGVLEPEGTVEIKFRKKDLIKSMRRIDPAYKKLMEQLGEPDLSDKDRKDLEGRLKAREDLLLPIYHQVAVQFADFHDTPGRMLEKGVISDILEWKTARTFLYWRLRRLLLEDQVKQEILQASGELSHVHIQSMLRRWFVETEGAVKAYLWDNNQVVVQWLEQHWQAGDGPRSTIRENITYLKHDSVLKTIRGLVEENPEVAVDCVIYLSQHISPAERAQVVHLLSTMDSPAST
Test: recombinant hACC2 Transcreener assay (direct inhibition of ACC2 activity)
Assay type: biochemical
Settings: Transcreener ADP detection FP assay, 50 μM ATP, 30 μM acetyl-CoA, 50 min at 25° C.
pIC50: −log10 of the molar value.
QUANTITY_NAME: pIC50

Here's what some known entries look like.
>>> value("CNc1nc(C)ccc1C(=O)N1CCC2(CC1)CC(=O)c1c(cnn1C(C)C)C2 [Example 11A-46]")
7.01
>>> value("CC(C)(C)n1ncc2c1C(=O)CC1(CCN(C(=O)c3cc4ccccn4c3)CC1)C2 [Example 11A-36]")
7.12
>>> value("CC(C)n1ncc2c1C(=O)CC1(CCN(C(=O)c3ccc(-n4ccnc4)cn3)CC1)C2 [Example 11A-63]")
5.59
>>> value("CC(C)(C)n1ncc2c1C(=O)CC1(CCN(C(=O)c3ccnc(-c4cc[nH]n4)c3)CC1)C2 [Example 11A-26]")
7.38
>>> value("CC(C)(C)n1ncc2c1C(=O)CC1(CCN(C(=O)c3ccc4cnccc4n3)CC1)C2 [Example 11A-61]")
5.87
>>> value("CC(C)n1ncc2c1C(=O)CC1(CCN(C(=O)c3cc4ccncc4[nH]3)CC1)C2")
6.60

P: CC(C)n1ncc2c1C(=O)CC1(CCN(C(=O)c3ccnc(-c4cc[nH]n4)c3)CC1)C2 [Example 11A-18]
Q: Cc1nc2c(Cl)cc(C(=O)N3CCC4(CC3)CC(=O)c3c(cnn3C(C)(C)C)C4)cc2[nH]1
Which of these two has the smaller recorded pIC50: P or Q ? Your answer should be the label of the entry you select.
P

----------
Target: recombinant human ACC2 (rhACC2) (Homo sapiens, UniProt O00763, V2141I)
Construct: a full length Cytomax clone of ACC2 was purchased from Cambridge Bioscience Limited
Experiment: recombinant hACC2 Transcreener assay (direct inhibition of ACC2 activity)
Conditions: Transcreener ADP detection FP assay, 50 μM ATP, 30 μM acetyl-CoA, 50 min at 25° C.
pIC50: −log10 of the molar value.
QUANTITY_NAME: pIC50

>>> value("CC(C)n1ncc2c1C(=O)CC1(CCN(C(=O)c3cccnc3C(N)=O)CC1)C2 [Example 11A-10]")
6.10
>>> value("CC(C)n1ncc2c1C(=O)CC1(CCN(C(=O)c3cnc4cn[nH]c4c3)CC1)C2 [Example 11A-31]")
7.08
>>> value("CC(C)n1ncc2c1C(=O)C(C)C1(CCN(C(=O)c3ccc4[nH]ncc4c3)CC1)C2 (single isomer, unassigned; (+)) [Example 5A-1]")
6.06

I: CC(C)n1ncc2c1C(=O)CC1(CCN(C(=O)c3ccc4cc[nH]c(=O)c4c3)CC1)C2
II: CC(C)(C)n1ncc2c1C(=O)CC1(CCN(C(=O)c3ccc(N4CCOCC4)cn3)CC1)C2 [Example 11A-57]
III: Cc1cc(C(=O)N2CCC3(CC2)CC(=O)c2c(cnn2C(C)(C)C)C3)c(N)c(C)n1 [Example 11A-38]
IV: CC(C)(C)n1ncc2c1C(=O)CC1(CCN(C(=O)c3ccc(-n4cncn4)cc3)CC1)C2 [Example 11A-72]
Please give the order of these compounds when sorted by pIC50, largest value leading. Return the labels ranked in the requested order, please.
I, IV, III, II

----------
Biological target: recombinant human ACC2 (rhACC2) (Homo sapiens, UniProt O00763, V2141I)
Construct: a full length Cytomax clone of ACC2 was purchased from Cambridge Bioscience Limited
Test: recombinant hACC2 Transcreener assay (direct inhibition of ACC2 activity)
Settings: Transcreener ADP detection FP assay, 50 μM ATP, 30 μM acetyl-CoA, 50 min at 25° C.
Protocol: For example direct inhibition of ACC activity, for the compound of Formula (1) was determined using preparations of recombinant human ACC1 (rhACC1) and recombinant human ACC2 (rhACC2). […] [3] […] Human ACC2 inhibition was measured using purified recombinant human ACC2 (hrACC2). […] 4 mgs of ACC2 were eluted at a concentration of 0.05 mg/mL (determined by A280) with an estimated purity of 95% (determined by A280). […]
pIC50: −log10 of the molar value.
QUANTITY_NAME: pIC50

1: CC(C)n1ncc2c1C(=O)CC1(CCN(C(=O)c3cc(Cl)c4[nH]c(=O)[nH]c4c3)CC1)C2 [Example 2A-57]
2: CC(C)n1ncc2c1C(=O)CC1(CCN(C(=O)c3cc4[nH]ccn4n3)CC1)C2 [Example 2A-67]
Just curious, which one has the larger pIC50 reading, 1 or 2 ? Provide the label of your selected option as the answer.
1

a: CC(C)n1ncc2c1C(=O)CC1(CCN(C(=O)c3cc(Cl)c4[nH]ncc4c3)CC1)C2 [Example 2A-16]
b: Cc1cc(C(=O)N2CCC3(CC2)CC(=O)c2c(cnn2CC2CCCO2)C3)ccc1Cl (centres unmarked) [Example 2A-2]
I'd appreciate it if you could identify which of a and b has the greater pIC50. // respond with label for picked entry
a

A: CC(C)n1ncc2c1C(=O)CC1(CCN(C(=O)c3cc(Cl)c4nc[nH]c4c3)CC1)C2 [Example 2A-47]
B: CC(C)n1ncc2c1C(=O)CC1(CCN(C(=O)c3ccc4ncccc4c3O)CC1)C2 [Example 2A-69]
Smaller pIC50 value? Options are A and B Label of pick, please.
B

a: CC(C)n1ncc2c1C(=O)CC1(CCN(C(=O)c3ccc4c(cnn4C)c3)CC1)C2 [Example 2A-11]
b: Cc1cc(C(=O)N2CCC3(CC2)CC(=O)c2c(cnn2C(C)(C)C)C3)ccc1Cl [Example 1A-2]
Looking at recorded values for pIC50, does a or b come in lower? Kindly state the label of the option you pick.
b

----------
Biological target: recombinant human ACC2 (rhACC2) (Homo sapiens, UniProt O00763, V2141I)
Construct: a full length Cytomax clone of ACC2 was purchased from Cambridge Bioscience Limited
Test: recombinant hACC2 Transcreener assay (direct inhibition of ACC2 activity)
Settings: Transcreener ADP detection FP assay, 50 μM ATP, 30 μM acetyl-CoA, 50 min at 25° C.
QUANTITY_NAME: IC50 (nM)

I: CC(C)n1ncc2c1C(=O)CC1(CCN(C(=O)c3c[nH]c4ncccc34)CC1)C2
II: Cc1cc(C(=O)N2CCC3(CC2)CC(=O)c2c(cnn2C)C3)ccc1Cl
III: Cc1nn(C)c(C(=O)N2CCC3(CC2)CC(=O)c2c(cnn2C(C)(C)C)C3)c1O [Example 11A-25]
IV: CC(C)n1ncc2c1C(=O)CC1(CCN(C(=O)c3cccc(-c4cc[nH]n4)c3)CC1)C2 [Example 11A-15]
V: Cc1cc(C(=O)N2CCC3(CC2)CC(=O)c2c(cnn2C(C)(C)C)C3)n(-c2cccnc2)n1 [Example 11A-5]
Sort entries by IC50 from minimum to maximum value. # output: labels, in the requested order
IV, I, III, II, V
(IV: 43.8 nM, I: 387 nM, III: 745 nM, II: 2530 nM, V: 13200 nM)

----------
Target: recombinant human ACC2 (rhACC2) (Homo sapiens, UniProt O00763, V2141I)
Construct: a full length Cytomax clone of ACC2 was purchased from Cambridge Bioscience Limited
Experiment: recombinant hACC2 Transcreener assay (direct inhibition of ACC2 activity)
Details: Transcreener ADP detection FP assay, 50 μM ATP, 30 μM acetyl-CoA, 50 min at 25° C.
Protocol: For example direct inhibition of ACC activity, for the compound of Formula (1) was determined using preparations of recombinant human ACC1 (rhACC1) and recombinant human ACC2 (rhACC2). […] [3] […] Human ACC2 inhibition was measured using purified recombinant human ACC2 (hrACC2). […] 4 mgs of ACC2 were eluted at a concentration of 0.05 mg/mL (determined by A280) with an estimated purity of 95% (determined by A280). […]
QUANTITY_NAME: IC50 (µM)

# count of solved cases: 3
>>> value("CC(C)n1nc(C#N)c2c1C(=O)CC1(CCN(C(=O)c3ccc4[nH]cnc4c3)CC1)C2 [Example 8A-1]")
1.66
>>> value("Cc1nc2c(Cl)cc(C(=O)N3CCC4(CC3)CC(=O)c3c(cnn3C(C)C)C4)cc2[nH]1 [Example 2A-52]")
0.0193
>>> value("CC(C)n1ncc2c1C(=O)CC1(CCN(C(=O)c3cc(-c4cccnc4)[nH]n3)CC1)C2 [Example 11A-62]")
0.112

1: Cc1ccn2cc(C(=O)N3CCC4(CC3)CC(=O)c3c(cnn3C(C)C)C4)nc2c1 [Example 11A-40]
2: Cc1ccc(O)c(C(=O)N2CCC3(CC2)CC(=O)c2c(cnn2C(C)(C)C)C3)n1 [Example 11A-44]
3: CC(C)n1ncc2c1C(=O)CC1(CCN(C(=O)c3cc4cnccc4nc3N)CC1)C2 [Example 2A-38]
4: CC(C)n1ncc2c1C(=O)CC1(CCN(C(=O)c3ccc4[nH]cnc4n3)CC1)C2 [Example 11A-65]
5: CC(C)(C)n1ncc2c1C(=O)CC1(CCN(C(=O)c3cccc(-c4c[nH]cn4)c3)CC1)C2 [Example 11A-7]
// ascending sort on recorded IC50 Record the ranking as a list of labels in the requested order.
5, 3, 4, 1, 2
(5: 0.0104 µM, 3: 0.0997 µM, 4: 0.388 µM, 1: 0.588 µM, 2: 4.6 µM)
